# maps each entry to its inhibition of SARS-CoV-2 cytopathic effect
# Test system: Vero E6 infected with SARS-CoV-2
# protocol_text: inhibition of SARS-CoV-2 cytopathic effect; higher = more antiviral protection, active = above 15
# assay_setup: 1 nM; 48 h

Past entries and their recorded results:
[[record]]
molecule = "Cc1ccc(-c2csc3ncnc(SCCC(=O)O)c23)cc1"
result = "-0.23% (inactive)"

[[record]]
molecule = "CC[N+](CC)(CCCNC1=CC(=O)C(NCCC[N+](CC)(CC)Cc2ccccc2)=CC1=O)Cc1ccccc1 [benzoquinonium-dibromide]"
result = "-1.79% (inactive)"

[[record]]
molecule = "CC[C@H](C)[C@@H]1NC(=O)[C@H](Cc2ccc(OC)cc2)NC(=O)CCCSC[C@@H](C(=O)N2CCC[C@H]2C(=O)N[C@@H](CC(C)C)C(=O)NCC(N)=O)NC(=O)[C@H](CC(N)=O)NC(=O)[C@H](CCC(N)=O)NC1=O"
result = "-1.89% (inactive)"

[[record]]
molecule = "CC(CNC(=O)c1cccnc1)NC(=O)c1cccnc1 (centres undefined)"
result = "0.7% (inactive)"

[[record]]
molecule = "Cc1c(N(C)C)c(=O)n(-c2ccccc2)n1C"
result = "-14.8% (inactive)"


## Task What measured inhibition of SARS-CoV-2 cytopathic effect goes with CC(=O)O/N=C1\C(=O)N(Cc2cc(Cl)ccc2Cl)c2ccc(Cl)cc21 ?
## Result -1.23% (inactive)

## Task And CC(C)C(N)C(=O)O (stereo in doubt) ?
## Result 0.78% (inactive)

## Task Then what about the molecule CC1(C)CCC(C)(C)c2cc(NC(=O)c3ccc(C(=O)O)cc3)ccc21 ?
## Result 4.56% (inactive)

## Task Next up: O[C@H]1[C@H](O)[C@@H](O)CN2CC[C@H](O)[C@H]12
## Result 0.15% (inactive)

## Task Quick one: CCCCC(F)(F)[C@@]1(O)CC[C@H]2[C@@H](CC(=O)[C@@H]2CCCCCCC(=O)O)O1
## Result -0.41% (inactive)

## Task Param item: CCCCc1ccc2[nH]c(NC(=O)OC)nc2c1
## Result 0.24% (inactive)

## Task Again, but for Cc1cccc(NC(=O)CN2CCC(c3ccccn3)CC2)c1
## Result 1.23% (inactive)

## Task How about CC(C)CN(C[C@@H](O)[C@H](Cc1ccccc1)NC(=O)O[C@H]1CO[C@H]2OCC[C@H]21)S(=O)(=O)c1ccc(N)cc1 ?
## Result -2.41% (inactive)

## Task Request: O=C(Nc1ccc(C(F)(F)F)cn1)N1CCN(c2ncccc2C(F)(F)F)CC1
## Result -2.83% (inactive)
